Test system: SF-539
ASSAY_PROCEDURE: NCI tumour cell line growth inhibition, 48 h
Screen size: about 55,000 sequences; about 4,100 (7.5%) were called active. A selection follows. Results with a measured potency or affinity are listed apart.

- SUBSTANCE: "[Bis(aminomethyl)pentamethylenesilane]dichloropaltinum(II), CHEMBL2146202"
  GI50, nM: 1480
- SUBSTANCE: "mu-(1,7-nanodiamine-N,N')bis-(cis-aminedichloroplatimum (II)), CHEMBL2146215"
  GI50, nM: 27400
- SUBSTANCE: "[Bis(aminomethyl)diethylsilane]tetrachloroplatinum(IV), CHEMBL2146203"
  GI50, nM: 2490
- SUBSTANCE: "[Bis(aminomethyl)tetramethylenesilane]tetrachloropaltinum(IV), CHEMBL2146189"
  GI50, nM: 2180
- SUBSTANCE: "CISPLATIN, CHEMBL11359"
  GI50, nM: 1660

Data provenance is ChEMBL document CHEMBL1201862.
